Reported CHMF, percentage of HMF consumed at 48 h values follow for various compounds
Test system: S. cerevisiae
Experiment: Batch fermentation of amino acid detoxified loblolly pine hydrolysates by Baker yeast
Format: cell-based, Saccharomyces cerevisiae
Conditions: hydrolysates detoxified with amino acid 0.2% w/v, pH 6.0, 60° C., 2 hours
Only the number, expressed in %, is required.

Some entries whose results are on file:
{"Compound": "N[C@@H](CO)C(=O)O", "Target": "S. cerevisiae", "Unit Abbreviation": "%", "CHMF, percentage of HMF consumed at 48 h": 15.66}
{"Compound": "CC(C)C[C@H](N)C(=O)O", "Target": "S. cerevisiae", "Unit Abbreviation": "%", "CHMF, percentage of HMF consumed at 48 h": 12.84}

Dear colleague, I am looking for the recorded CHMF, percentage of HMF consumed at 48 h of the following compound: N[C@@H](CC(=O)O)C(=O)O [Aspartate, aspartate]
16.27

----------
Test system: S. cerevisiae
Assay: Batch fermentation of amino acid detoxified loblolly pine hydrolysates by Baker yeast
Assay type: cell-based, Saccharomyces cerevisiae
Details: hydrolysates detoxified with amino acid 0.2% w/v, pH 6.0, 60° C., 2 hours
Property Label: CHMF, percentage of HMF consumed at 48 h (%)
Only the number, expressed in %, is required.

Some entries whose results are on file:
{"Compound": "CSCC[C@H](N)C(=O)O", "Measured": 12.78}
{"Compound": "N=C(N)NCCC[C@H](N)C(=O)O", "Measured": 12.69}
{"Compound": "C[C@H](N)C(=O)O", "Measured": 11.03}
{"Compound": "NC(=O)CC[C@H](N)C(=O)O", "Measured": 13.38}
{"Compound": "O=C(O)[C@@H]1CCCN1", "Measured": 13.35}
{"Compound": "N[C@@H](CCC(=O)O)C(=O)O [Glutamate, glutamate]", "Measured": 15.40}

Dear colleague, I am looking for the recorded CHMF, percentage of HMF consumed at 48 h of the following compound: CC(C)[C@H](N)C(=O)O
12.66

Dear colleague, I am looking for the recorded CHMF, percentage of HMF consumed at 48 h of the following compound: N[C@@H](Cc1ccccc1)C(=O)O
12.69

Dear colleague, I am looking for the recorded CHMF, percentage of HMF consumed at 48 h of the following compound: N[C@@H](Cc1ccc(O)cc1)C(=O)O
12.17

Dear colleague, I am looking for the recorded CHMF, percentage of HMF consumed at 48 h of the following compound: CC[C@H](C)[C@H](N)C(=O)O
17.36

Dear colleague, I am looking for the recorded CHMF, percentage of HMF consumed at 48 h of the following compound: C[C@@H](O)[C@H](N)C(=O)O
16.19

Measured values drawn from patent US20160215305A1 for this set.
